Study System: T1, human CLL1 on the surface of transfected cells (HEK293-CLL1; HEK-293T membrane proteome array) (human, UniProt Q5QGZ9 1-265)
T1 construct: whole, on cells; also called HEK293-CLL1 cells; CLL1 target antigen
T1 sequence (looked up): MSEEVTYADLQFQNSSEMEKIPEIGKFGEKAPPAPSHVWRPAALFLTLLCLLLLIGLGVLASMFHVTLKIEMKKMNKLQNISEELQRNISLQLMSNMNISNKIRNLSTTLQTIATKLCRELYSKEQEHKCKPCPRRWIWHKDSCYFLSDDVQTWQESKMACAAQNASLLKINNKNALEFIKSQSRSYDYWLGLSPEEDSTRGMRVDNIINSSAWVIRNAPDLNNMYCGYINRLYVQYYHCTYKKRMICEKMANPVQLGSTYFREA
Assay Explanation: flow cytometry on HEK293 cells overexpressing CLL1, FITC goat anti-human IgG-Fc secondary; controls on the sheet: Cells + Secondary Antibody 1029.8, Blank 1041.3
Endpoint Name: MFI at 1ug/ml
The answer should be written as a number, with no unit following it.

Determine from records and report MFI at 1ug/ml for chimeric antibody ch23D7 (antibody, V domains shown) VH: QVQLQQPGSDLVRPGASVKLSCKASGYTFTRYWMHWVKQRPGHGLEWIGYIYPGSGTSNYDEKFKSKATLTVDTSSSTAYMQLSSLTSEDSAVYYCTREARYTMDYWGQGTSVTVSS VL: QIVLTQSPAIMSASPGEKVTMTCSASSSVSYIYWYQQKPGSSPGLLIYDTSNLASGVPVRFSGSGSGTSYSLTISRMEAEDAATYYCQQWSSFPPTFGAGTKLELK 151000
